Below: a set of entries, each annotated with reported Activity.
- Test system: Plasma
- Protocol Details: Haemostatic activity in human plasma assessed as change in rate of thrombin time at 10 uM after 3 mins by thrombin agent based assay relative to control
- Format: functional

{"columns": ["Structure String", "Activity (%)"],
 "data": [
  ["CC(=O)Oc1ccc(/C=C/C(=O)Nc2nccs2)cc1", -22.03],
  ["COc1ccc(/C=C/C(=O)Nc2nccs2)cc1", -8.23],
  ["O=C(/C=C/c1ccccc1)Nc1nccs1", -11.23]
]}

This collection of values is drawn from ChEMBL document CHEMBL4177571.
